System name: T1, MSLN·His protein (human, UniProt Q13421 296-580, limits assumed)
T1 construct: Bought protein; also called human MSLN·His antigen; not shown: His tag
T1 sequence (Q13421 other isoform, or with tags, fused parts or gaps limits assumed): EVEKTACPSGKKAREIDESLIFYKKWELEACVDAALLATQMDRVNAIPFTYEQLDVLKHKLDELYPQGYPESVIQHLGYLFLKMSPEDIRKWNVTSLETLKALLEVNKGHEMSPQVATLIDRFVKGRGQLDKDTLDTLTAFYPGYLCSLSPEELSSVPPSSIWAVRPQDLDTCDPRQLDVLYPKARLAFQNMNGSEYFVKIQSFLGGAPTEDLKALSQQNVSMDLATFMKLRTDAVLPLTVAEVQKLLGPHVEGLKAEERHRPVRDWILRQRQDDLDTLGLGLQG
Experiment notes: SPR (Biacore), antibody captured on protein A, MSLN·His as analyte
Readout: Kd (pM)

[a] M119-IgG4 (antibody, V domains shown, also called M119 heavy chain antibody) VH: EVQLVESGGGLVQPGGSLRLSCVASGSDLSFDAMGWYRQFSATVRERQLVVATSRDGRIYYGDSVKGRFTASRDNLKNSVDLEMNNLKPEDTAIYYCAAGDDPKNYDWGPGTQVTVSS
[b] M344-IgG4 (antibody, V domains shown, also called M344 heavy chain antibody) VH: QVQLVESGGGLVQSGGSLRLSCVASGSAFSFDAMGWYRQFSATRRERQLVVATSRDGRTYYADSVKGRFTATRDNSKNSLYLEMNSLKPEDTAIYYCAAGDDPKNYSWGQGTQVTVSS
input: Please let me know which one, a or b , has a lower measured Kd value. Bench note: the answer is the label of the chosen record.
output: b
